# Test system: HL-60
# assay.protocol: NCI tumour cell line growth inhibition, 48 h
Calls of active or inactive are those of the source. Rule as the data show it: active = GI50 up to about 1.1 µM and inactive = higher.
Please reply with one of these outcomes: YES (active), NO (inactive)

Example entries and their recorded answers appear below.
>  <compound>
Cc1ccc(NC(=O)CC(=O)N2N=C(N(C)c3ccccc3)CC2c2ccccc2)cc1 (configuration not stated)

>  <classification>
NO

$$$$
>  <compound>
CN(C)CN(C)c1nc(N(C)C)nc(N(C)C)n1

>  <classification>
NO

$$$$

Problem: For CN1C/C(=C\c2ccco2)c2nc(N)nc(-c3ccco3)c2C1 , what call appears in the results of this test?
Solution: NO

Problem: Outcome? Cc1ccc(C(=O)N/N=C(\N=N\c2cccc(Cl)c2)c2ccc(N(CCC#N)CCC#N)cc2C)cc1
Solution: NO

Problem: Hi, sorry to bother you, what did the test record for CCOC(=O)CSc1nc(N)c2c(-c3ccccc3)c3c(nc2n1)CCCC3 ?
Solution: NO

Where these numbers come from: ChEMBL document CHEMBL1201862
